# RUN_DESCRIPTION: Uptake, clearance and metabolism of bchla in tumor and liver (extraction, HPLC)
# Format: in vivo, DBA/2 Ha mice
# RUN_PARAMETERS: mouse, tumor; 10 mg/kg, 2 h after injection; read-out: Tissue Level, Tumor
ENDPOINT_NAME: concentration at 2 h (ng/g)
Response body: numeric value in ng/g, unit text excluded.

Look up concentration at 2 h for this compound: CCC1C2=NC(=Cc3c(C(C)=O)c(C)c4[n]3[Mg][n]3c(c(C)c5c3=C(C3=NC(=C4)C(C)C3CCC(=O)OCC=C(C)CCCC(C)CCCC(C)CCCC(C)C)C(C(=O)OC)C5=O)=C2)C1C (stereo not shown)
6140

###

# RUN_DESCRIPTION: Uptake, clearance and metabolism of bchla in tumor and liver (extraction, HPLC)
# Format: in vivo, DBA/2 Ha mice
# RUN_PARAMETERS: mouse, tumor; 20 mg/kg, 24 h after injection; uncertain (*), conversion to other components; read-out: Tissue Level, Tumor
ENDPOINT_NAME: concentration at 24 h

Look up concentration at 24 h for this compound: CCC1C2=NC(=Cc3c(C(C)=O)c(C)c4[n]3[Mg][n]3c(c(C)c5c3=C(C3=NC(=C4)C(C)C3CCC(=O)OCC=C(C)CCCC(C)CCCC(C)CCCC(C)C)C(C(=O)OC)C5=O)=C2)C1C (stereo not shown) [bchla, Bacteriochlorophyll-a]
10000 to 19700 ng/g

###

# RUN_DESCRIPTION: Uptake, clearance and metabolism of bchla in tumor and liver (extraction, HPLC)
# Assay type: in vivo, DBA/2 Ha mice
# RUN_PARAMETERS: mouse, liver; 10 mg/kg, 24 h after injection; uncertain (*), conversion to other components; read-out: Tissue Level, Liver
ENDPOINT_NAME: concentration at 24 h (ng/g)
Response body: numeric value in ng/g, unit text excluded.

Look up concentration at 24 h for this compound: CCC1C2=NC(=Cc3c(C(C)=O)c(C)c4[n]3[Mg][n]3c(c(C)c5c3=C(C3=NC(=C4)C(C)C3CCC(=O)OCC=C(C)CCCC(C)CCCC(C)CCCC(C)C)C(C(=O)OC)C5=O)=C2)C1C (stereo not shown) [bchla, Bacteriochlorophyll-a]
49400

###

# RUN_DESCRIPTION: Uptake, clearance and metabolism of bchla in tumor and liver (extraction, HPLC)
# Format: in vivo, DBA/2 Ha mice
# RUN_PARAMETERS: mouse, tumor; 10 mg/kg, 48 h after injection; uncertain (*), conversion to other components; read-out: Tissue Level, Tumor
ENDPOINT_NAME: concentration at 48 h (ng/g)
Response body: numeric value in ng/g, unit text excluded.

Look up concentration at 48 h for this compound: CCC1C2=NC(=Cc3c(C(C)=O)c(C)c4[n]3[Mg][n]3c(c(C)c5c3=C(C3=NC(=C4)C(C)C3CCC(=O)OCC=C(C)CCCC(C)CCCC(C)CCCC(C)C)C(C(=O)OC)C5=O)=C2)C1C (stereo not shown)
10700

###

# RUN_DESCRIPTION: Uptake, clearance and metabolism of bchla in tumor and liver (extraction, HPLC)
# Assay type: in vivo, DBA/2 Ha mice
# RUN_PARAMETERS: mouse, liver; 10 mg/kg, 2 h after injection; read-out: Tissue Level, Liver
ENDPOINT_NAME: concentration at 2 h (ng/g)
Response body: numeric value in ng/g, unit text excluded.

Look up concentration at 2 h for this compound: CCC1C2=NC(=Cc3c(C(C)=O)c(C)c4[n]3[Mg][n]3c(c(C)c5c3=C(C3=NC(=C4)C(C)C3CCC(=O)OCC=C(C)CCCC(C)CCCC(C)CCCC(C)C)C(C(=O)OC)C5=O)=C2)C1C (stereo not shown)
44000

Entry source: patent US5171741A
